test system: BHK-pD2hRucPac cells; experiment: Cell viability (CellTiter-Glo) in replicon assay; settings: read-out: Replicon Assay_CC50_M; Table 2-1
Each entry below carries its reported log10 CC50.
Record value = log10 of CC50 given in µM.

compound: O=C1NC(=S)SC1=Cc1cccc(Cl)c1Cl
log10 CC50: 1.04

compound: COc1ccc2nc(N3CCCCC3)c(C=C3SC(=S)NC3=O)cc2c1
log10 CC50: 1.08

Looking up COc1ccc(N2C(=O)/C(=C/c3cc([N+](=O)[O-])cc(OC)c3O)SC2=S)cc1 , I found its log10 CC50 recorded as 1.36

Looking up CC(C)N1C(=O)SC(=Cc2ccccc2OCc2ccc(C(=O)O)cc2)C1=O , I found its log10 CC50 recorded as 1.52

Sourced from patent US9206412B2
